# target.or.system: SHC-transforming protein 2 (Homo sapiens, UniProt P98077)
# Sequence (P98077 whole entry): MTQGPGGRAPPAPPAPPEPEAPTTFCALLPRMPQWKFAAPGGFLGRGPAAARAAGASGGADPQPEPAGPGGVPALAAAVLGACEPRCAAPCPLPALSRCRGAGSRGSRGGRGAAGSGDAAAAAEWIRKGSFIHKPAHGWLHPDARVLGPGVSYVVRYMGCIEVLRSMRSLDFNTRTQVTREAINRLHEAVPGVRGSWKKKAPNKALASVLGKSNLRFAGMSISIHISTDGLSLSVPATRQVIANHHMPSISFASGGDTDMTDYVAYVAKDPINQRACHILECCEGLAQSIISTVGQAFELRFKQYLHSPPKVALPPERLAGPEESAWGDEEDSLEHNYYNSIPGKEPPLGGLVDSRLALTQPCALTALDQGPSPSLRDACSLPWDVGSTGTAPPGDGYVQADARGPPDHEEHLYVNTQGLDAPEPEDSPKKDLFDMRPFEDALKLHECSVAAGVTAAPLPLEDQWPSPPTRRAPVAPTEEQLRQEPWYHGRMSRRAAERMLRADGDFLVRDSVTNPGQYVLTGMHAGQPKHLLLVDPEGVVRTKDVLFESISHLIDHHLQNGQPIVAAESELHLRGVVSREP
pIC50: −log10 of the molar value.
outcome.measure: pIC50

# molecule, reported
data = [
    ("NC(=O)CC(NC(=O)C1(NC(=O)C(N)Cc2ccc(OP(=O)(O)O)c(N)c2)CCCCC1)C(N)=O (stereo unspecified)", "< 5.30"),
]
